# TEST_PROTOCOL: total protein half-life in vivo (active degradation + dilution); higher = more stable protein
# EXPERIMENTAL_PARAMETERS: E. coli NCM3722 delta-smpB; growth: N-lim chemostat; doubling time 6 h
READOUT: total protein half-life in vivo (h)
Give the number; h is assumed, so skip it.

{"columns": ["CHAIN_SEQUENCE", "total protein half-life in vivo / h"],
 "data": [
  ["MKLFAQGTSLDLSHPHVMGILNVTPDSFSDGGTHNSLIDAVKHANLMINAGATIIDVGGESTRPGAAEVSVEEELQRVIPVVEAIAQRFEVWISVDTSKPEVIRESAKVGAHIINDIRSLSEPGALEAAAETGLPVCLMHMQGNPKTMQEAPKYDDVFAEVNRYFIEQIARCEQAGIAKEKLLLDPGFGFGKNLSHNYSLLARLAEFHHFNLPLLVGMSRKSMIGQLLNVGPSERLSGSLACAVIAAMQGAHIIRVHDVKETVEAMRVVEATLSAKENKRYE [P0AC13]", 3.72]
]}

Prompt: Entry under review: MIQPISGPPPGQPPGQGDNLPSGTGNQPLSSQQRTSLESLMTKVTSLTQQQRAELWAGIRHDIGLSGDSPLLSRHFPAAEHNLAQRLLAAQKSHSARQLLAQLGEYLRLGNNRQAVTDYIRHNFGQTPLNQLSPEQLKTILTLLQEGKMVIPQPQQREATDRPLLPAEHNALKQLVTKLAAATGEPSKQIWQSMLELSGVKDGELIPAKLFNHLVTWLQARQTLSQQNTPTLESLQMTLKQPLDASELAALSAYIQQKYGLSAQSSLSSAQAEDILNQLYQRRVKGIDPRVMQPLLNPFPPMMDTLQNMATRPALWILLVAIILMLVWLVR . Reported total protein half-life in vivo?
Response: 3.56

Prompt: Another sequence to check: MQNITQSWFVQGMIKATTDAWLKGWDERNGGNLTLRLDDADIAPYHDNFHQQPRYIPLSQPMPLLANTPFIVTGSGKFFRNVQLDPAANLGIVKVDSDGAGYHILWGLTNEAVPTSELPAHFLSHCERIKATNGKDRVIMHCHATNLIALTYVLENDTAVFTRQLWEGSTECLVVFPDGVGILPWMVPGTDEIGQATAQEMQKHSLVLWPFHGVFGSGPTLDETFGLIDTAEKSAQVLVKVYSMGGMKQTISREELIALGKRFGVTPLASALAL
Response: 2.45

----------
# TEST_PROTOCOL: total protein half-life in vivo (active degradation + dilution); higher = more stable protein
# EXPERIMENTAL_PARAMETERS: E. coli NCM3722 delta-clpP delta-lon delta-hslV; growth: N-lim chemostat; doubling time 6 h
total protein half-life in vivo vs 5 h: at or above is t, below is f.

Some solved entries appear below for comparison.
{"columns": ["CHAIN_SEQUENCE", "GROUP_LABEL"],
 "data": [
  ["MNYRIIPVTAFSQNCSLIWCEQTRLAALVDPGGDAEKIKQEVDDSGLTLMQILLTHGHLDHVGAAAELAQHYGVPVFGPEKEDEFWLQGLPAQSRMFGLEECQPLTPDRWLNEGDTISIGNVTLQVLHCPGHTPGHVVFFDDRAKLLISGDVIFKGGVGRSDFPRGDHNQLISSIKDKLLPLGDDVIFIPGHGPLSTLGYERLHNPFLQDEMPVW", "f"],
  ["MNGKLQSSDVKNETPYNIPLLINENVISSGISLISLWHTYADEHYRVIWPRDKKKPLIANSWVAVYTVQGCGKILLKNGEQITLHGNCIIFLKPMDIHSYHCEGLVWEQYWMEFTPTSMMDIPVGQQSVIYNGEIYNQELTEVAELITSPEAIKNNLAVAFLTKIIYQWICLMYADGKKDPQRRQIEKLIATLHASLQQRWSVADMAATIPCSEAWLRRLFLRYTGKTPKEYYLDARLDLALSLLKQQGNSVGEVADTLNFFDSFHFSKAFKHKFGYAPSAVLKNTDQHPTDASPHN", "t"]
]}

Prompt: Textbook exercise: given the entry MDIVFIEQLSVITTIGVYDWEQTIEQKLVFDIEMAWDNRKAAKSDDVADCLSYADIAETVVSHVEGARFALVERVAEEVAELLLARFNSPWVRIKLSKPGAVARAANVGVIIERGNNLKENN [P0AC16] , state whether its total protein half-life in vivo is greater than or equal to 5 h.
Response: t

Prompt: Another sequence to check: MSETASWQPSASIPNLLKRAAIMAEIRRFFADRGVLEVETPCMSQATVTDIHLVPFETRFVGPGHSQGMNLWLMTSPEYHMKRLLVAGCGPVFQLCRSFRNEEMGRYHNPEFTMLEWYRPHYDMYRLMNEVDDLLQQVLDCPAAESLSYQQAFLRYLEIDPLSADKTQLREVAAKLDLSNVADTEEDRDTLLQLLFTFGVEPNIGKEKPTFVYHFPASQASLAQISTEDHRVAERFEVYYKGIELANGFHELTDAREQQQRFEQDNRKRAARGLPQHPIDQNLIEALKVGMPDCSGVALGVDRLVMLALGAETLAEVIAFSVDRA [P0A8N7]
Response: t

Prompt: Another sequence to check: MSLINTKIKPFKNQAFKNGEFIEITEKDTEGRWSVFFFYPADFTFVCPTELGDVADHYEELQKLGVDVYAVSTDTHFTHKAWHSSSETIAKIKYAMIGDPTGALTRNFDNMREDEGLADRATFVVDPQGIIQAIEVTAEGIGRDASDLLRKIKAAQYVASHPGEVCPAKWKEGEATLAPSLDLVGKI [P0AE08]
Response: f

Prompt: Another sequence to check: MKKTAIAIAVALAGFATVAQAAPKDNTWYTGAKLGWSQYHDTGFINNNGPTHENQLGAGAFGGYQVNPYVGFEMGYDWLGRMPYKGSVENGAYKAQGVQLTAKLGYPITDDLDIYTRLGGMVWRADTKSNVYGKNHDTGVSPVFAGGVEYAITPEIATRLEYQWTNNIGDAHTIGTRPDNGMLSLGVSYRFGQGEAAPVVAPAPAPAPEVQTKHFTLKSDVLFNFNKATLKPEGQAALDQLYSQLSNLDPKDGSVVVLGYTDRIGSDAYNQGLSERRAQSVVDYLISKGIPADKISARGMGESNPVTGNTCDNVKQRAALIDCLAPDRRVEIEVKGIKDVVTQPQA [P0A910]
Response: t

Prompt: Another sequence to check: MKGRWVKYLLMGTVVAMLAACSSKPTDRGQQYKDGKFTQPFSLVNQPDAVGAPINAGDFAEQINHIRNSSPRLYGNQSNVYNAVQEWLRAGGDTRNMRQFGIDAWQMEGADNYGNVQFTGYYTPVIQARHTRQGEFQYPIYRMPPKRGRLPSRAEIYAGALSDKYILAYSNSLMDNFIMDVQGSGYIDFGDGSPLNFFSYAGKNGHAYRSIGKVLIDRGEVKKEDMSMQAIRHWGETHSEAEVRELLEQNPSFVFFKPQSFAPVKGASAVPLVGRASVASDRSIIPPGTTLLAEVPLLDNNGKFNGQYELRLMVALDVGGAIKGQHFDIYQGIGPEAGHRAGWYNHYGRVWVLKTAPGAGNVFSG [P0A935]
Response: t

Prompt: Another sequence to check: MSNKMTGLVKWFNADKGFGFISPVDGSKDVFVHFSAIQNDNYRTLFEGQKVTFSIESGAKGPAAANVIITD
Response: f

Prompt: Another sequence to check: MYLSKVIIARAWSRDLYQLHQGLWHLFPNRPDAARDFLFHVEKRNTPEGCHVLLQSAQMPVSTAVATVIKTKQVEFQLQVGVPLYFRLRANPIKTILDNQKRLDSKGNIKRCRVPLIKEAEQIAWLQRKLGNAARVEDVHPISERPQYFSGDGKSGKIQTVCFEGVLTINDAPALIDLVQQGIGPAKSMGCGLLSLAPL
Response: t

Prompt: Another sequence to check: MTMNITSKQMEITPAIRQHVADRLAKLEKWQTHLINPHIILSKEPQGFVADATINTPNGVLVASGKHEDMYTAINELINKLERQLNKLQHKGEARRAATSVKDANFVEEVEEE [P0AD49]
Response: t

Prompt: Another sequence to check: MSSNTFTLGTKSVNRLGYGAMQLAGPGVFGPPRDRHVAITVLREALALGVNHIDTSDFYGPHVTNQIIREALYPYSDDLTIVTKIGARRGEDASWLPAFSPAELQKAVHDNLRNLGLDVLDVVNLRVMMGDGHGPAEGSIEASLTVLAEMQQQGLVKHIGLSNVTPTQVAEARKIAEIVCVQNEYNIAHRADDAMIDALAHDGIAYVPFFPLGGFTPLQSSTLSDVAASLGATPMQVALAWLLQRSPNILLIPGTSSVAHLRENMAAEKLHLSEEVLSTLDGISRE
Response: t

----------
# TEST_PROTOCOL: total protein half-life in vivo (active degradation + dilution); higher = more stable protein
# EXPERIMENTAL_PARAMETERS: wild type E. coli NCM3722; growth: C-lim chemostat; doubling time 6 h
READOUT: total protein half-life in vivo (h)
Give the number; h is assumed, so skip it.

{"columns": ["CHAIN_SEQUENCE", "READOUT", "EXPERIMENTAL_VALUE"],
 "data": [
  ["MRIVTAAVMASTLAVSSLSHAAEVGSGDNWHPGEELTQRSTQSHMFDGISLTEHQRQQMRDLMQQARHEQPPVNVSELETMHRLVTAENFDENAVRAQAEKMANEQIARQVEMAKVRNQMYRLLTPEQQAVLNEKHQQRMEQLRDVTQWQKSSSLKLLSSSNSRSQ [P0AE85]", "total protein half-life in vivo", 2.39]
]}

In the following, a different sequence is considered.
Prompt: Entry under review: METFNSLFMVSPLLLGVLFFVAMLAGFIDSIAGGGGLLTIPALMAAGMSPANALATNKLQACGGSISATIYFIRRKVVSLSDQKLNIAMTFVGSMSGALLVQYVQADVLRQILPILVICIGLYFLLMPKLGEEDRQRRMYGLPFALIAGGCVGFYDGFFGPAAGSFYALAFVTLCGFNLAKATAHAKLLNATSNIGGLLLFILGGKVIWATGFVMLVGQFLGARMGSRLVLSKGQKLIRPMIVIVSAVMSAKLLYDSHGQEILHWLGMN [P0AD30] . Reported total protein half-life in vivo?
Response: 5.18
